Origin of measurements: PubChem BioAssay AID1259407

Test system: CCRIS mutagenicity, Ames/micronucleus/aberration tests
Assay: CCRIS mutagenicity studies
Conditions: End Point: IN VITRO CHROMOSOMAL ABERRATIONS; Test System: CHINESE HAMSTER OVARY CELLS; Metabolic Activation: RAT, LIVER, S-9, AROCLOR 1254
Active and inactive are the calls of the source. No rule for the calls is given here.
Tick one outcome: T (active), F (inactive)

Solved cases (3 shown):
compound	measured-target	class
CC(C)NCC(O)c1ccc(O)c(O)c1 (centres undefined)	CCRIS mutagenicity, Ames/micronucleus/aberration tests	T
CN(C)C(=O)Nc1ccc(Cl)cc1	CCRIS mutagenicity, Ames/micronucleus/aberration tests	T
CC(C)[N+](C)(CCOC(=O)C1c2ccccc2Oc2ccccc21)C(C)C	CCRIS mutagenicity, Ames/micronucleus/aberration tests	F

Assay result, entry O=C1C2(Cl)C3(Cl)C4(Cl)C(Cl)(Cl)C5(Cl)C3(Cl)C1(Cl)C5(Cl)C24Cl (centres undefined) — outcome? F

Hey, what did the test say about `Nc1ccc(S(N)(=O)=O)cc1` ? F

Kindly provide the recorded test outcome for the following compound: `O=P(OCCCl)(OCCCl)OCCCl` F

Recorded test outcome, item `O=C1OC(=O)c2c(Cl)c(Cl)c(Cl)c(Cl)c21` F

Would you mind telling me which call this test gave `OCC(CO)(CBr)CBr` ? T

Identify the outcome logged in this assay for the compound shown: `OC(c1ccc(Cl)cc1)(c1ccc(Cl)cc1)C(Cl)(Cl)Cl` F

For CCOC(=O)CC(SP(=S)(OC)OC)C(=O)OCC (centres undefined) , what call appears in the results of this test? T

Assay outcome for `O=Cc1ccccc1` : what was it? F

Outcome? `NC(=S)NNC(N)=S` F

Could you kindly confirm the outcome this assay logged for `Nc1ccccc1` ? T

Field: outcome | Entry: `O=C/C=C/c1ccccc1` F

What was the test verdict on `O=[N+]([O-])c1c(Cl)c(Cl)cc(Cl)c1Cl` ? F

Lab log entry: `ClC=C(Cl)Cl` — outcome as called in the assay? F

What was the test verdict on `CC(Cl)(Cl)Cl` ? F

Identify the outcome logged in this assay for the compound shown: `ClC(Cl)=C(Cl)Cl` F

Status in this test for `CC1=CC[C@H]2C(C)=CC[C@@H](C(C)C)[C@@H]2C1` ? F
